Data provenance is paper PMC5067704.

- Protocol Text: Cytotoxicity assay (resazurin), HEK 293
- Format: cell-based
- Test Settings: human, HEK293 cells, 20 h incubation, highest concentration 60 μM
Readout Name: CC50 at 20 h

Below is a list of compounds. For each, state its recorded CC50 at 20 h.
1. COc1cc(Cc2cnc(N)nc2N)cc(OC)c1OCCCCCn1cc(CNc2ccc([N+](=O)[O-])c3nonc23)nn1 [compound 12c]
2. COc1cc(Cc2cnc(N)nc2N)cc(OC)c1OCCCn1cc(CNC(=O)Cc2cc(=O)oc3cc(N(C)C)ccc23)nn1 [13a]
3. COc1cc(Cc2cnc(N)nc2N)cc(OC)c1OCCCN=[N+]=[N-] [8a]

46 µM
> 60 µM
> 60 µM

---

- Test system: E. coli tolC mutant
- Protocol Text: microbe, parasite or virus in culture
- Type: cell-based, Escherichia coli
- Test Settings: Escherichia coli, read-out: MIC E. coli tolC mutant
Give measured MIC for each item. Keep answers brief.
One number for each entry, in mg/L.

Answered examples (3):
>>> val("COc1cc(Cc2cnc(N)nc2N)cc(OC)c1OCCCn1cc(CNC(=O)Cc2cc(=O)oc3cc(N(C)C)ccc23)nn1 [13a]")
8
>>> val("COc1cc(Cc2cnc(N)nc2N)cc(OC)c1OC [TMP, trimethoprim, reference compound]")
0.125
>>> val("COc1cc(Cc2cnc(N)nc2N)cc(OC)c1OCCCCCn1cc(CNS(=O)(=O)c2cccc3c(N(C)C)cccc23)nn1 [compound 14c]")
0.25

Turning now to a further record.
// returns reported MIC for input COc1cc(Cc2cnc(N)nc2N)cc(OC)c1OCCCCCn1cc(CNc2ccc([N+](=O)[O-])c3nonc23)nn1 [compound 12c]
0.5

---

Quick record of pIC50 values for E. coli dihydrofolate reductase (eDHFR) (Escherichia coli, UniProt P0ABQ4).
Give bare numbers, as −log10 of the molar value.

Answered examples (6):
>>> val("COc1cc(Cc2cnc(N)nc2N)cc(OC)c1OCCCCCn1cc(CNc2ccc([N+](=O)[O-])c3nonc23)nn1 [compound 12c]")
6.68
>>> val("COc1cc(Cc2cnc(N)nc2N)cc(OC)c1OCCCCn1cc(CNS(=O)(=O)c2cccc3c(N(C)C)cccc23)nn1 [compound 14b]")
6.65
>>> val("COc1cc(Cc2cnc(N)nc2N)cc(OC)c1OCCCCn1cc(CNC(=O)Cc2cc(=O)oc3cc(N(C)C)ccc23)nn1 [compound 13b]")
6.79
>>> val("COc1cc(Cc2cnc(N)nc2N)cc(OC)c1OCCCCN=[N+]=[N-]")
7.01
>>> val("COc1cc(Cc2cnc(N)nc2N)cc(OC)c1OCCCn1cc(CNS(=O)(=O)c2cccc3c(N(C)C)cccc23)nn1 [compound 14a]")
6.79
>>> val("COc1cc(Cc2cnc(N)nc2N)cc(OC)c1OCCCN=[N+]=[N-]")
7.18

Below is a list of compounds. For each, state its recorded pIC50.
1. COc1cc(Cc2cnc(N)nc2N)cc(OC)c1OCCCn1cc(CNC(=O)Cc2cc(=O)oc3cc(N(C)C)ccc23)nn1 [13a]
2. COc1cc(Cc2cnc(N)nc2N)cc(OC)c1OCCCCCN=[N+]=[N-]
3. COc1cc(Cc2cnc(N)nc2N)cc(OC)c1OCCCCCn1cc(CNC(=O)Cc2cc(=O)oc3cc(N(C)C)ccc23)nn1 [compound 13c]

7.08
6.85
6.18
